# System under test: SNARE complex (VAMP, syntaxin and SNAP-25) (UniProt P60880)
# Sequence (P60880 whole entry, one chain of several): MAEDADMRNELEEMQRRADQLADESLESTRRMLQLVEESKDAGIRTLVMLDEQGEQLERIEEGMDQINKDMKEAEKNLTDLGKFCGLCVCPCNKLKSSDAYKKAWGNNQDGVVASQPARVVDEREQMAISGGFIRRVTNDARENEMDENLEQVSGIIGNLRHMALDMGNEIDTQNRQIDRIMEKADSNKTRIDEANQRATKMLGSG
# Assay name: SDS-PAGE of SNARE complex: VAMP + syntaxin + compound, then SNAP-25; image analysis; compound at 5 mM
Non-standard residues stand in square brackets, D forms with d. *: point of attachment. Palmitoyl = CCCCCCCCCCCCCCCC(=O)*; Met(O) = CS(=O)CC[C@H](N)C(=O)O
Measurement kind: % inhibition formation SNARE complex (%)

Examples from the recorded data:
-- ask Data request, read-out % inhibition formation SNARE complex, for Ac-DHFQQRM-NH2 [Ac-SEQ ID NO:24-NH2]
-- reply 100

-- ask What would you report for Palmitoyl-EDLKRWM-NH2 [Palm-SEQ ID NO:14-NH2] ?
-- reply 93

-- ask What would you report for Ac-DHFLDW[Met(O)]-NH2 [Ac-SEQ ID NO:56-NH2] ?
-- reply 91

P = Ac-EHLKQWM-NH2 [Ac-SEQ ID NO:1-NH2]
Q = Palmitoyl-DHFQQRM-NH2 [Palm-SEQ ID NO:24-NH2]
-- ask # argmax over % inhibition formation SNARE complex for candidates P and Q Use the label to indicate which entry you chose.
-- reply P
